Below, each of the molecules is paired with its reported pIC50 value.
- System Name: PI3K-α (PIK3CA) in MDA-MB-453 cells (Homo sapiens)
- Sequence (P27986 2-724): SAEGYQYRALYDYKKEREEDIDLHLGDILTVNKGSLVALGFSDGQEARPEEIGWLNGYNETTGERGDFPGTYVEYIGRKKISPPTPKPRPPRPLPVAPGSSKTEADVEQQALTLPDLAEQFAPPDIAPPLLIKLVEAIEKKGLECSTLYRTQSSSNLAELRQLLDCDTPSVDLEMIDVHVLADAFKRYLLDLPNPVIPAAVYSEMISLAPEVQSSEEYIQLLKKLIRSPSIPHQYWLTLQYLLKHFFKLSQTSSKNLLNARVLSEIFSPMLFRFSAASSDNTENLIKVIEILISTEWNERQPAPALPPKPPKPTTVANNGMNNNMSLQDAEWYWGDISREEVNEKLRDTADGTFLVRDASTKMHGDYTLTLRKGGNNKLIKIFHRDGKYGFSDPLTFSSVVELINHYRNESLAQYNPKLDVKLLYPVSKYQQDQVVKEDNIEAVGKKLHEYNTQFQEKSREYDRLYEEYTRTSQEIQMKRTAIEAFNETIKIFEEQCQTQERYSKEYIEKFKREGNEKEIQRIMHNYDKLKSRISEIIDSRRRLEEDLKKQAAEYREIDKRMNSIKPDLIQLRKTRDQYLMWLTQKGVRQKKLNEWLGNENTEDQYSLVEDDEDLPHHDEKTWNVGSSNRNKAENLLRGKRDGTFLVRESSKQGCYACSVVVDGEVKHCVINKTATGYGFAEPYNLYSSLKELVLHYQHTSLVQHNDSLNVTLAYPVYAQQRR
- Sequence (P42336 whole entry): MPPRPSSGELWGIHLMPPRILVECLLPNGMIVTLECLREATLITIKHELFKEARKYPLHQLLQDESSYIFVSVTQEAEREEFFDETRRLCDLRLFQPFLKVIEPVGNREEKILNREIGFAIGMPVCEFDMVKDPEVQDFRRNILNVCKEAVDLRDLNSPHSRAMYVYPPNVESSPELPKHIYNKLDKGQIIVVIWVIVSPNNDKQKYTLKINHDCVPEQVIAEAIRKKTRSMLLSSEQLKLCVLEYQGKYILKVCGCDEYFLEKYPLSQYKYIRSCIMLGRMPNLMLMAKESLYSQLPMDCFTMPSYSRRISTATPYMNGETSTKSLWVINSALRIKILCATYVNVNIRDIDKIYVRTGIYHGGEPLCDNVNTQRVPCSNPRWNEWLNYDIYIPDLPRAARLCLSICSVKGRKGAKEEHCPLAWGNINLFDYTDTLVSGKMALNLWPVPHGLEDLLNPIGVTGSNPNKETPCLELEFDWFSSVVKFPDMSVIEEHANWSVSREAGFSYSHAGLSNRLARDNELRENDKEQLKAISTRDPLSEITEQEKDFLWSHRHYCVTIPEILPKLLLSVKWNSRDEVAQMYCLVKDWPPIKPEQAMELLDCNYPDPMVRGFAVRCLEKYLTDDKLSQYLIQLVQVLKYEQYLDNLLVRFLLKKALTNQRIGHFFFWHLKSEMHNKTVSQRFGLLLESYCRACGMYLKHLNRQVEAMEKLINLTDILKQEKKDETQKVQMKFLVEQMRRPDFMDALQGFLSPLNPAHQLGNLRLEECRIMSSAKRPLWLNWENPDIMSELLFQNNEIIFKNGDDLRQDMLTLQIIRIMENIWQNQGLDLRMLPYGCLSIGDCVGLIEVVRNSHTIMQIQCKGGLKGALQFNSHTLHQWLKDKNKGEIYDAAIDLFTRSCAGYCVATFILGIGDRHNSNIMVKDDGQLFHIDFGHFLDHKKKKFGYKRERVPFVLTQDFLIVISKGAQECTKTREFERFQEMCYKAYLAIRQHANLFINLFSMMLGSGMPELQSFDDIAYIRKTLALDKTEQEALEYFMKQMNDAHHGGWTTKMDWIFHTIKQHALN
- Protocol Text: PI3K-alpha kinase (PIK3CA) in vitro cell based assay, MDA-MB-453 cells, SureFire Ultra AlphaLisa
- Test Parameters: read-out: PI3K-α (PIK3CA) in vitro cell based assay IC50
- Experimental: PI3K-Alpha Kinase (PIK3CA) Activity In Vitro Cell Based Assay and Determining IC50 Values for Inhibitors The MDA-MB-453 (ATCC-HTB-131) cell line was obtained from the American Type Culture Collection (Manassas, VA). Cells were maintained in Dulbecco's Modified Eagle Media (DMEM, Gibco 11965-092) supplemented with 10% Fetal Bovine Serum, heat inactivated (FBS HI, Gibco 10082-147), 1× non-essential amino acids (NEAA, Gibco 11140-050), and 1 mM sodium pyruvate (Gibco 11360-070). […]
pIC50: −log10 of the molar value.

Molecule	pIC50
Cc1cc([C@@H](C)Nc2ccc(Cl)nc2C(=O)O)c2oc(-c3ccc4nc(C)sc4c3)c(C)c(=O)c2c1 [Example 246]	> 7.30
Cc1cc(C(C)Nc2ccccc2C(=O)O)c2oc(-c3ccc4cn[nH]c4c3)cc(=O)c2c1 (single isomer, unassigned) [Example 63]	> 7.30
CC(Nc1ccccc1C(=O)O)c1cc(F)cc2c(=O)cc(-c3ccc4nn(C)cc4c3)oc12 (single isomer, unassigned) [Example 55]	> 7.30
COc1ccc2nc(-c3cc(=O)c4cc(C)cc([C@@H](C)Nc5ccccc5C(=O)O)c4o3)ccc2n1 [Example 255]	7.00 to 7.30
